FYI, the data here is from patent US11130733B2.

Assay: Pharmacokinetic evaluation, plasma and brain concentrations
Assay type: in vivo, ICR mice
Conditions: male, ICR, mouse, plasma, po, 10 mg/kg, PO 10 mg/kg, 0.5 hr; read-out: Blood concentration, Mean
MEASURED_ENDPOINT: concentration at 0.5 h (ng/mL)
One number for each entry, in ng/mL.

Query block: Identify concentration at 0.5 h associated with the molecule O=C1C=C(OCc2ccc(F)cc2)[C@H](Cc2ccccc2)N1
Result block: 727

----------
Assay: Pharmacokinetic evaluation, plasma and brain concentrations
Assay type: in vivo, ICR mice
Details: male, ICR, mouse, brain, iv, 1 mg/kg, IV 1 mg/kg, 0.5 hr; read-out: Brain tissue concentration, individual mice
MEASURED_ENDPOINT: concentration at 0.5 h (ng/g)
Answers are plain numbers, in ng/g.

Query block: Query concentration at 0.5 h for O=C1C=C(OCc2ccc(F)cc2)[C@H](Cc2ccccc2)N1 [Compound 50561]
Result block: 148
